# assay-system: HCV NS3/4A protease genotype 1b (Hepatitis C virus genotype 1b)
# experiment-summary: HCV NS3/4A protease time-resolved fluorescence (TRF) assay, Ki against genotype 1b
# Type: biochemical
# protocol-conditions: IC50 [gt-1b] (nM), NS3/4A genotype 1b, enzyme 0.2 nM
Recorded IC50, one value per entry.
Dear colleague, please return just the value in nM, with no unit written.

Example entries begin here.
>>> value_measured("COc1ccc2nc(C3CC3)c3c(c2c1)CC[C@]1(C[C@H]2C(=O)N[C@]4(C(=O)NS(=O)(=O)C5(C)CC5)C[C@H]4/C=C\\CCCCC[C@H](NC(=O)OC(C)C)C(=O)N2C1)O3")
0.003
>>> value_measured("Cc1nc2ccccc2c2c1O[C@@]1(C[C@H]3C(=O)N[C@]4(C(=O)NS(=O)(=O)C5(C)CC5)C[C@H]4/C=C\\CCCCC[C@H](NC(=O)OC4CCCC4)C(=O)N3C1)CC2(F)F")
0.022

Now look at this entry.
Task: Returns the measured IC50 for the input compound. Input: CC(C)(C)OC(=O)N[C@H]1CCCCC/C=C\[C@@H]2C[C@@]2(C(=O)NS(=O)(=O)C2(C)CC2)NC(=O)[C@@H]2C[C@]3(CCc4c(cnc5ccccc45)O3)CN2C1=O
Output: 0.033

====

# assay-system: HCV NS3/4A protease genotype 1b (Hepatitis C virus genotype 1b)
# experiment-summary: HCV NS3/4A protease time-resolved fluorescence (TRF) assay, Ki against genotype 1b
# Format: biochemical
# protocol-conditions: IC50 [gt-1b], NS3/4A protease TRF assay, genotype 1b enzyme 0.2 nM
observable: pIC50
Remember, pIC50 is on a log scale: it is -log10 of the molar concentration.

Example entries begin here.
>>> value_measured("[2H]C([2H])(F)Oc1ccc2nc(C)c3c(c2c1)[C@H](F)C[C@]1(C[C@H]2C(=O)N[C@]4(C(=O)NS(=O)(=O)C5(C)CC5)C[C@H]4/C=C\\CCCCC[C@H](NC(=O)OC(C)(C)C)C(=O)N2C1)O3 [Example 397]")
11.22
>>> value_measured("Cc1ccc2nc(C(F)(F)F)c3c(c2c1)CC[C@]1(C[C@H]2C(=O)N[C@]4(C(=O)NS(=O)(=O)C5(C)CC5)C[C@H]4/C=C\\CCCCC[C@H](NC(=O)O[C@H](C)C(C)C)C(=O)N2C1)O3 [Example 395]")
10.85
>>> value_measured("CCCOC(=O)N[C@H]1CCCCC/C=C\\[C@@H]2C[C@@]2(C(=O)NS(=O)(=O)C2(C)CC2)NC(=O)[C@@H]2C[C@]3(CCc4c(c(C(F)(F)F)nc5ccc(OC)cc45)O3)CN2C1=O [Example 448]")
11.22
>>> value_measured("CC(C)(C)OC(=O)N[C@H]1CCCCC/C=C\\[C@@H]2C[C@@]2(C(=O)NS(=O)(=O)C2(C)CC2)NC(=O)[C@@H]2C[C@]3(CCc4c(c(C(F)(F)F)nc5ccc(OCCN6CC(F)(F)C6)cc45)O3)CN2C1=O [Example 518]")
10.92
>>> value_measured("COc1ccc2nc(C(F)(F)F)c3c(c2c1)CC[C@]1(C[C@H]2C(=O)N[C@]4(C(=O)NS(=O)(=O)C5(C)CC5)C[C@H]4/C=C\\CCCCC[C@H](NC(=O)OC4(C(C)C)CC4)C(=O)N2C1)O3 [Example 449]")
11.15

Now look at this entry.
Task: API: value(readout=pIC50, system=HCV NS3/4A protease genotype 1b (Hepatitis C virus genotype 1b)) for record Cc1nc2ccccc2c2c1O[C@]1(CC2)C[C@H]2C(=O)N[C@]3(C(=O)NS(=O)(=O)C4(C)CC4)C[C@H]3/C=C\CCCCC[C@H](NC(=O)OC3CCC(F)(F)C3)C(=O)N2C1 (stereo partly shown) [Example 375]
Output: 10.74
